Measured values drawn from ChEMBL document CHEMBL3808334 for this set.

Measured growth at 10 µM, listed per entry for reference.
Assay: Growth inhibition of human SNB75 cells assessed as cell growth at 10^-5 M incubated for 48 hrs by sulforhodamine B assay
Assay type: functional
Conditions: SNB-75, 48 h, read-out: Activity
Could you kindly put the unit after your number?

Here's what some known entries look like.
Give its growth at 10 µM value. Item: "Fc1ccc(-c2nc(Nc3ccc(-c4nc5ccccc5[nH]4)cc3)nc(N3CCOCC3)n2)cc1"
1%

Cool, now "Clc1ccc(-c2nc(Nc3ccc(-c4nc5ccccc5[nH]4)cc3)nc(N3CCOCC3)n2)cc1"
-91%

Cool, now "c1ccc(-c2nc(Nc3ccc(-c4nc5ccccc5[nH]4)cc3)nc(N3CCOCC3)n2)cc1"
-88%

***
Give its growth at 10 µM value. Item: "c1ccc2[nH]c(-c3ccc(Nc4nc(N5CCCCC5)nc(N5CCOCC5)n4)cc3)nc2c1"
10%
